Answer each item with its documented IC50.
# study target: HSV-1 TK (Human herpesvirus 1, UniProt P0DTH5)
# Sequence (P0DTH5 whole entry): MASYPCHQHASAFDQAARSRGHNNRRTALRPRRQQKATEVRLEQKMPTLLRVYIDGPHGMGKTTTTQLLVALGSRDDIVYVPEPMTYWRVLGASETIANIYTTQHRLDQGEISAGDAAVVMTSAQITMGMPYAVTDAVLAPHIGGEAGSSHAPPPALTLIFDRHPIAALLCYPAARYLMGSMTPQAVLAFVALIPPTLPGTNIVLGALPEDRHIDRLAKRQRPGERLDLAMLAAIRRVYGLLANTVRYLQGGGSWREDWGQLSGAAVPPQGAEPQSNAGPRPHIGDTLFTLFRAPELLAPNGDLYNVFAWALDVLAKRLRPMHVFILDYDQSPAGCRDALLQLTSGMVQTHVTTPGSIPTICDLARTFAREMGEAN
# run description: biochemical
One number for each entry, in µM.

Answer for every listed entry: what is its IC50? The entries follow.
1. O=c1[nH]c(=O)n([C@H]2C[C@H](O)[C@@H](CO)O2)cc1F [FdU, 5-fluorodeoxyuridine]
2. O=c1[nH]c(=O)n([C@H]2C[C@H](O)[C@@H](CO)O2)cc1/C=C/Br [BVDU, (E)-5-(2-bromovinyl)-2′-deoxyuridine]
3. O=c1[nH]c(=O)n([C@@H]2O[C@H](CO)[C@@H](O)[C@@H]2O)cc1/C=C/Br [BVaraU]
4. O=c1[nH]c(=O)n([C@@H]2O[C@H](CO)[C@@H](O)[C@@H]2F)cc1I [FIAU]

1: 58; 2: 3; 3: 4; 4: 2
